system: KM-20L2; assay: NCI tumour cell line growth inhibition, 48 h
The source made the active and inactive calls. Cut-off read from the data, not from the text of the source: active = GI50 up to about 1.1 µM and inactive = higher.
Outcome field: choose from active, inactive

These solved cases illustrate the format of a correct answer.
CC1=CCP(C(F)(F)F)P(C(F)(F)F)C1 (centres undefined) ... inactive
[N-]=[N+]=CC(=O)OCC(N)C(=O)O (centres undefined) ... active
O=C(c1nc2ccccc2nc1O)C(O)c1ccco1 (centres undefined) ... inactive
O=C(Nc1cccc2c1C(=O)c1c(NC(=O)c3ccccc3)ccc(Nc3cccc4c3C(=O)c3ccccc3C4=O)c1C2=O)c1ccccc1 ... inactive

Next compound, please.
Could you please tell me the result logged for "CC1=C(C(=O)Nc2ccc([N+](=O)[O-])cc2)C(c2ccccc2F)C(C(=O)Nc2ccc([N+](=O)[O-])cc2)=C(C)N1" in this assay?
inactive
